tested target: Collagenase 3 (Homo sapiens) (UniProt P45452)
experiment description: NVS_ENZ_hMMP13: NovaScreen (NVS) Enzymatic Assay for human Matrix Metalloproteinase-13 (MMP13) (AID 2283182)
Records with an inconclusive call do not appear. Calls of active or inactive are those of the source. The calls were made as follows: active = hit-call score of the fitted dose curve at least 0.9, where 1 is the maximum; inconclusive = response in the unintended direction; inactive = score below 0.9.
Outcome codes: yes for active, no for inactive

- molecule: "CC1(C)C(C=C(Cl)Cl)C1C(=O)OC(C#N)c1cccc(Oc2ccccc2)c1 (centres undefined)"
  tested target: "Collagenase 3 (Homo sapiens) (UniProt P45452)"
  classification: "yes"
- molecule: "Cc1c(COC(=O)[C@@H]2[C@H](/C=C(\\Cl)C(F)(F)F)C2(C)C)cccc1-c1ccccc1"
  tested target: "Collagenase 3 (Homo sapiens) (UniProt P45452)"
  classification: "no"
- molecule: "CCOC(=O)C(C)OC(=O)c1cc(Oc2ccc(C(F)(F)F)cc2Cl)ccc1[N+](=O)[O-] (centres undefined)"
  tested target: "Collagenase 3 (Homo sapiens) (UniProt P45452)"
  classification: "yes"
- molecule: "Clc1nc(Cl)nc(Nc2ccccc2Cl)n1"
  tested target: "Collagenase 3 (Homo sapiens) (UniProt P45452)"
  classification: "no"

* * *

experiment description: BSK_hDFCGF_Proliferation: Cell Proliferation Assessment in the BioMAP Diversity Plus: hDFCGF Assay (AID 2283059);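 also: curves fitted for both rise and fall of signal versus DMSO baseline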
experimental conditions: primary human foreskin fibroblasts
Active and inactive are the calls of the source. Rule for the calls: active = hit-call score of the fitted dose curve at least 0.9, where 1 is the maximum; inactive = score below 0.9.
Possible outcomes: label 1 (active), label 0 (inactive)

- compound: "Cn1c(-c2ccccc2)cc(-c2ccccc2)[n+]1C"
  classification: "label 1"
- compound: "C=CCOC(=O)C(C)(C)OC(=O)c1cc(-n2c(=O)cc(C(F)(F)F)n(C)c2=O)ccc1Cl"
  classification: "label 0"
- compound: "CCCCC(O)(Cn1cncn1)c1ccc(Cl)cc1Cl (stereo not given)"
  classification: "label 1"
- compound: "CCCCC(C#N)(Cn1cncn1)c1ccc(Cl)cc1 (stereo not given)"
  classification: "label 0"
- compound: "CC1(C)CCC(=Cc2ccc(Cl)cc2)C1(O)Cn1cncn1 (stereo not given)"
  classification: "label 1"
- compound: "O=C1C2CC=CCC2C(=O)N1SC(Cl)(Cl)Cl (stereo not given)"
  classification: "label 1"
- compound: "OC(c1ccc(Cl)cc1)(c1ccc(Cl)cc1)C(Cl)(Cl)Cl"
  classification: "label 1"
- compound: "CN=C=S"
  classification: "label 0"
- compound: "COc1cc(OC)nc(NC(=O)NS(=O)(=O)c2ncccc2OCC(F)(F)F)n1"
  classification: "label 0"
- compound: "COCc1cnc(C2=NC(C)(C(C)C)C(=O)N2)c(C(=O)O)c1 (stereo not given)"
  classification: "label 0"
- compound: "CO/N=C(/C1=NOCCO1)c1ccccc1Oc1ncnc(Oc2ccccc2Cl)c1F"
  classification: "label 1"
- compound: "Clc1nc(Cl)nc(Nc2ccccc2Cl)n1"
  classification: "label 1"
- compound: "COP(=S)(OC)SCn1nnc2ccccc2c1=O"
  classification: "label 1"
- compound: "CCNP(=S)(OC)O/C(C)=C/C(=O)OC(C)C (stereo not given)"
  classification: "label 0"
- compound: "CCCCOCN(C(=O)CCl)c1c(CC)cccc1CC"
  classification: "label 1"
- compound: "CCOP(=O)(OCC)Oc1nc(Cl)c(Cl)cc1Cl"
  classification: "label 1"
- compound: "CC(C)=CC1C(C(=O)OCc2coc(Cc3ccccc3)c2)C1(C)C (stereo not given)"
  classification: "label 1"
- compound: "Nc1c(Cl)c(Cl)nc(C(=O)O)c1Cl"
  classification: "label 0"
- compound: "CCN(CC)c1nc(C)cc(OP(=S)(OC)OC)n1"
  classification: "label 1"
- compound: "O=C(Nc1ccccc1-c1ccc(Cl)cc1)c1cccnc1Cl"
  classification: "label 0"
- compound: "COC(=O)N(C(=O)N1CO[C@@]2(C(=O)OC)Cc3cc(Cl)ccc3C2=N1)c1ccc(OC(F)(F)F)cc1"
  classification: "label 1"
- compound: "Cc1cnc(C2=NC(C)(C(C)C)C(=O)N2)c(C(=O)O)c1 (stereo not given)"
  classification: "label 0"
- compound: "COc1cc(Cl)c(OC)cc1Cl"
  classification: "label 0"
- compound: "O=C(O)c1c(Cl)ccc2cc(Cl)cnc12"
  classification: "label 0"
- compound: "COP(=O)(OC)O/C(C)=C/C(=O)N(C)C"
  classification: "label 0"
